assay: SU-DIPG-VI glioma cell viability, MIPE4.0 library, CellTiter-Glo luminescence, qHTS (AID 1347066); details: CellTiter-Glo ATP luminescence;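 further: cells exposed to compound for 48 hours before readout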
Results filed as inconclusive are left out. Activity calls are given as the source filed them. Cut-off not given; nearly all actives show AC50 up to about 30 µM.
Respond using exactly one of the listed classes: active, inactive

Record excerpt, results attached:
C[C@]12CCC(=O)C=C1CC[C@@H]1[C@@H]2[C@@H](O)C[C@@]2(C)[C@H]1CC[C@]2(O)C(=O)CO ... inactive
Clc1ccc2c(c1)C(N1CCNCC1)=Nc1ccccc1O2 ... inactive
NC12CC3CC(CC(C3)C1)C2 ... inactive

Tell me the assay call for Cc1ncc([N+](=O)[O-])n1CC(C)O (stereo not given) please.
inactive

Tell me the assay call for `CCn1cc(C(=O)O)c(=O)c2cc(F)c(N3CCNCC3)cc21` please.
inactive

Tell me the assay call for `Fc1ccc([C@@H]2CCNC[C@H]2COc2ccc3c(c2)OCO3)cc1` please.
inactive

Tell me the assay call for COc1ccccc1OCC(O)COC(N)=O (stereo not given) please.
inactive

====

experiment: stimulators of insulin release from INS-1E, primary screen, cell-based, 5 mM glucose, NPC library (AID 1117329); conditions: rat INS-1E insulin secretion, at 10 µM, stronger effect = higher value
metric: insulin secretion stimulation (%)
Report only the number, with the unit % understood.

Answered examples (2):
CCCCCCCCCCCCCCCCCCO ... -1.7
COC(=O)c1cc(Cl)ccc1OC ... 1.5

The recorded insulin secretion stimulation for CCN(CC)CCOc1ccc(C(O)(Cc2ccc(Cl)cc2)c2ccc(C)cc2)cc1 (stereo not drawn) is 0.1

The recorded insulin secretion stimulation for OC(CCN1CCCCC1)(c1ccccc1)C1CCCCC1 (stereo not drawn) is 12.4

The recorded insulin secretion stimulation for CCN(Cc1ccncc1)C(=O)C(CO)c1ccccc1 (stereo not drawn) is 1.6

The recorded insulin secretion stimulation for `Cc1ccc(S(=O)(=O)NC(=O)NC2CCCCC2)cc1` is 26.7

The recorded insulin secretion stimulation for `NC(=O)c1cnccn1` is -1.9

The recorded insulin secretion stimulation for `CCCCCCCC[N+](C)(C)CCCCCCCC` is -3

The recorded insulin secretion stimulation for CCOC(=O)C(O)c1ccccc1 (stereo not drawn) is 0

====

assay: inhibition of endothelial tube formation, primary screen, imaging, VEGF stimulated, CD31 staining, tube area, NPC library (AID 1117340); conditions: VEGF-stimulated ADSC/ECFC co-culture, at 10 µM, stronger effect = higher value
Activity calls are given as the source filed them.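 The calls were made as follows: active = compound that reduces growth-factor-driven endothelial tube area in a mixed cell culture, no cutoff stated; inactive = the rest.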
metric: tube area decrease

Answered examples (5):
CNC(=O)c1cnn(-c2nc(N)c3ncn([C@@H]4O[C@H](CO)[C@@H](O)[C@H]4O)c3n2)c1 ... 20.4% (inactive)
CCCCN(CCCC)C(C(N)=O)c1ccc(OC)cc1 (stereo unspecified) ... 6.6% (inactive)
CC1(C)OC(=O)Nc2ccc(Br)cc21 ... 13.5% (inactive)
CCN(CC)CC(=O)Nc1c(C)cccc1C(=O)OC ... 27.1% (inactive)
CC(C)C(=O)Nc1cccc(C(F)(F)F)c1 ... -5.2% (inactive)

The recorded tube area decrease for `CC(C)[C@H](N)C(=O)O` is -14.8% (inactive)

====

assay: kinase inhibitors against Plasmodium liver-stage infection, cell-based, known kinase inhibitor set, luminescence, hepatoma host viability (AID 624392); settings: Plasmodium liver stage in hepatoma cells, luciferase luminescence, concentration not given here; measured here: host liver cell viability;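 further: infected cells incubated roughly two days before readout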
metric: liver cell % of control (%)
Report only the number, with the unit % understood.

Answered examples (8):
Cc1ccc(O)cc1Nc1ccnc2ccc(S(C)(=O)=O)cc12 ... 79.8
CC1=C(C(=O)Nc2ccc3[nH]ncc3c2)C(c2ccc(F)cc2)N=C(c2ccc(C(F)(F)F)nc2)N1 (stereo unspecified) ... 102
CN(c1ccc(NC(=O)NCCN2CCOCC2)cc1)c1ccnc(Nc2ccc(CS(C)(=O)=O)cc2)n1 ... 99.9
CN1CCN(Cc2ccc(-c3cc4ncnc(Nc5ccc(OCc6cccc(F)c6)c(Cl)c5)c4s3)o2)CC1 ... 69.8
CC(C)(O)CCc1cccc(C(=O)c2cnn(-c3ccc(F)cc3)c2N)c1 ... 105
COc1cc2ncnc(Nc3ccc(C)c(O)c3)c2cc1OC ... 56.5
C[C@@H](Oc1cc(-n2cnc3ccc(OC4CCN(C)CC4)cc32)sc1C(N)=O)c1ccccc1Cl ... 70.4
Cn1cc(C2=C(c3cn(C)c4ccccc34)C(=O)NC2=O)c2ccccc21 ... 115

The recorded liver cell % of control for COC1CCC2NC3C4NC5CCC(OC)CC5C4C4C(=O)NC(=O)C4C3C2C1 (stereo unspecified) is 93.4

Source: PubChem BioAssay
